test_description: physchem
assay_context: organic solvent or mixture, Solubility in propylene glycol
property: solubility
Number first, unit second: that is the form wanted.

Incoming: Data request, read-out solubility, for "Cc1cnc(NC(=O)C2=C(O)c3ccccc3S(=O)(=O)N2C)s1"
Outgoing: 300 µg/mL

----------
test_description: physchem
assay_context: organic solvent or mixture, Solubility in PEG 400
Answer each item with its documented solubility.
Please reply with the bare figure in µg/mL and do not write the unit itself.

Incoming: Data request, read-out solubility, for "Cc1cnc(NC(=O)C2=C(O)c3ccccc3S(=O)(=O)N2C)s1"
Outgoing: 3700

Incoming: Data request, read-out solubility, for "CC(=O)[C@H]1CC[C@H]2[C@@H]3CCC4=CC(=O)CC[C@]4(C)[C@H]3CC[C@]12C"
Outgoing: 15300
